Target: T1, HMGB1-BoxA (RED-tris-NTA dye on the His tag (His-Tag Labeling Kit RED-tris-NTA 2nd Generation) in the MST)
T1 chain: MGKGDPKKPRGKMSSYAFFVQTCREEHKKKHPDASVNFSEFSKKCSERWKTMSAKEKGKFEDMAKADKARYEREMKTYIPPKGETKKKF
Test: MST; 10 nM target protein labelled on its His tag (RED-tris-NTA) mixed with sixteen 1:1 serial dilutions of the peptide; PBS-T (0.05 % Tween 20); incubated at least 40 min at room temperature; 25 °C; Monolith NT.115 Pico, excitation 20 %, MST power 40 %
Details: both partners purified
OBSERVATION_TYPE: Kd (µM)
Only the number, expressed in µM, is required.

query: Which Kd is listed for PRHYQMWIH (Reconstituted in DMSO; also called G1P + E5Q; source: synthetic peptide, synthetized by Proteogenix (without TFA), purity about 99 %) [HBP08–2] ?
result: 4.2

Data provenance: paper PMC12925725
